- Target Entity: T1, IL10Rα/IL2Rγ receptor (human) (UniProt Q13651)
- T1 sequence (looked up) 1: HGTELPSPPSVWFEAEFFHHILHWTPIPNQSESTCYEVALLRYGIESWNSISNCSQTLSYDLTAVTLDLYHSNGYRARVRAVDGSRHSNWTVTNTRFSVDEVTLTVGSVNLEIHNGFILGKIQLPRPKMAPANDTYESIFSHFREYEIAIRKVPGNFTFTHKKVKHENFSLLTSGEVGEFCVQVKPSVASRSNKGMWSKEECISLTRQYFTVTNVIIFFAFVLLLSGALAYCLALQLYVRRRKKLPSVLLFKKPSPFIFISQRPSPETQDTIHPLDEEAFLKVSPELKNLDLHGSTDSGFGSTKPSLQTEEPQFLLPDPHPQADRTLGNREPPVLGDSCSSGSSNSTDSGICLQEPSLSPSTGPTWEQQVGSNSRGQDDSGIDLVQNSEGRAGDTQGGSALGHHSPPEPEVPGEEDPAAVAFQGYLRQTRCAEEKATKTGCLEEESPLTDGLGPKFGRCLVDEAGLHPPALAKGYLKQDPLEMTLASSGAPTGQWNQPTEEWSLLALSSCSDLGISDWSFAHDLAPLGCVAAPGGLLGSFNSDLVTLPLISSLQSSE
- T1 sequence (looked up) 2: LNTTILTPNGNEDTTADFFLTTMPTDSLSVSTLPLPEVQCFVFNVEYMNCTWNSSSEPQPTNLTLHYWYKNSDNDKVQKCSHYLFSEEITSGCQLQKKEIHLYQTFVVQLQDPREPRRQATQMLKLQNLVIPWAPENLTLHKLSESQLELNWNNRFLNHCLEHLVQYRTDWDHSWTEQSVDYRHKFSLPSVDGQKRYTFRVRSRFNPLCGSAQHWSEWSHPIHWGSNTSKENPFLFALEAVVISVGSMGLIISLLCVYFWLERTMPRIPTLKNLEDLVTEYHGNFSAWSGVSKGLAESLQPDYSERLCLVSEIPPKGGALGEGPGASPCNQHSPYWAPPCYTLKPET
- Experiment Description: cell-based or functional assay
Property Measured: Granzyme A secretion, CD8 T cells, at 1 µM (pg/mL)
Form entry: value (pg/mL) — number only.

- Binder: "hIL10Ra_VHH14 - hIL2Rg_VHH19, linker GGGSGGGS, tag his (bispecific antibody, not shown: small tags and cut ends) QVQLQESGGGSVQAGGSLRLSCGASGYTYSSYCMGWFRQVPGKEREGVAVIDSDGSTSYADSVKGRFTISKDNGKNTLYLQMNSLKPEDTAMYYCAADLGHYRPPCGVLYLGMDYWGKGTQVTVSSGGGSGGGSQVQLQESGGGSVQAGGSLRLSCTASGFTFDDREMNWYRQAPGNECELVSTISSDGSTYYADSVKGRFTISQDNAKNTVYLQMDSVKPEDTAVYYCAADFMIAIQAPGAGCWGQGTQVTVSS"
  Quantitative Result: 30100

Then there is this binder:
Recorded Granzyme A secretion, CD8 T cells, at 1 µM of hIL10Ra_VHH14 - hIL2Rg_VHH19, linker GS, tag his (bispecific antibody, not shown: small tags and cut ends) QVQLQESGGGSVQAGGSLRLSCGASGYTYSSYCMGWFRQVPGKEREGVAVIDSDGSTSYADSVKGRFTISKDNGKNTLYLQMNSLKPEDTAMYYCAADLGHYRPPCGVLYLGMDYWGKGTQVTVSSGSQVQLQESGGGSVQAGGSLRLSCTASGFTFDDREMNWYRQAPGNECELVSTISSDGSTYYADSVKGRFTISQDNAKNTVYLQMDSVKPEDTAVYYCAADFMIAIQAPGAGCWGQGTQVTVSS , please.
27900
